- Method: Quantitative High-Throughput drug screen in 47 multiple myeloma cell lines against the NCATS MIPE library collection: JIM3_ECACC cell viability assay (AID 1918963; also: nearly all actives have a fitted effect of over 35% in size)
- Study Conditions: JIM3 myeloma viability, CellTiter-Glo ATP, 48 h; series mostly up to 45.8 µM
- Text: PI: Beverly A. Mock Ph.D. Laboratory of Cancer Biology and Genetics, Center for Cancer Research, National Cancer Institute, National Institute of Health, Bethesda, Maryland […] 5; Detector; 425V; Luminescence; Viewlux PerkinElmer. […] 1. […] Briefly, the corresponding myeloma cell lines were screened in 1,536-well plates with 500 cells, 5-uL per well for inhibition of cell viability (assessed by measuring ATP levels with CellTiterGlo). […]
Inconclusive results are not listed. Active and inactive are the calls of the source. Calls follow the shape of the dose curve; as a rule, active = well fitted cell-killing curve with a large enough effect; inconclusive = small, poorly fitted or top-dose-only effect; inactive = no such curve, though single readings can be large or run the other way.
The reply should be one of these categories: y for active, n for inactive

[
  {
    "Molecule": "NC1(Cc2ccc(Cl)cc2)CCN(c2ncnc3[nH]ccc23)CC1",
    "Label Class": "y"
  },
  {
    "Molecule": "COc1cc2c(cc1-c1c(C)noc1C)ncc1[nH]c(=O)n([C@H](C)c3ccccn3)c12",
    "Label Class": "y"
  }
]

Query :: // outcome(item) with item = C[C@]12CC[C@H](O)CC1=CCC1C2CC[C@]2(C)C(n3cnc4ccccc43)=CCC12 (stereo partly drawn)
Result :: n

Query :: # fetch the recorded call for Cc1[nH]c2ccccc2c1CCNCc1ccc(C=CC(=O)NO)cc1 here
Result :: y

Query :: Please indicate how the test categorized C[C@@H](Oc1cc(-n2cnc3ccc(CN4CCN(C)CC4)cc32)sc1C(N)=O)c1ccccc1C(F)(F)F .
Result :: y

Query :: Fill in: this test's call for CNC(=O)c1nn(C)c2c1C(C)(C)Cc1cnc(Nc3ccc(N4CCN(C)CC4)cc3)nc1-2 is ___
Result :: y

Query :: Outcome logged for COc1ccc2c(OCc3nnc4ccc(-c5ccccc5)nn34)ccnc2c1 in this assay:
Result :: n

Query :: For Cc1cn2cc(C(=O)N(C)CCO)cc(N[C@@H]3CCOc4cccc(C)c43)c2n1 , what call appears in the results of this test?
Result :: n

Query :: Can you look up the reported call for NC(=O)c1cccc2cn(-c3ccc([C@@H]4CCCNC4)cc3)nc12 for me?
Result :: n

Query :: Which outcome was entered for the molecule Cc1cc(Nc2ncnc3ccc(-c4ccc(CNCCS(C)(=O)=O)o4)cc23)ccc1Oc1ccn2ncnc2c1 in this test?
Result :: y

Query :: Would you mind telling me which call this test gave Cn1cncc1[C@@](N)(c1ccc(Cl)cc1)c1ccc2c(c1)c(-c1cccc(Cl)c1)cc(=O)n2C ?
Result :: y

Query :: Please indicate how the test categorized OCCCNc1cc(-c2ccnc(Nc3cccc(Cl)c3)n2)ccn1 .
Result :: y

Query :: Per the records of this test, what outcome belongs to CC(C)Nc1cc(C(F)(F)F)cc2nc(NC(=O)c3cccnc3)nn12 ?
Result :: n

Query :: Short answer needed: outcome of this test for CC(C)c1ccccc1Cc1cc(C(=O)Nc2ccc(S(=O)(=O)c3ccccc3C(C)(C)C)cc2)c(O)c(O)c1O ?
Result :: y
